Examples of compounds with documented viability at 24 h, 20 µM follow.
test: Cytotoxicity against mouse RAW264.7 cells assessed as survival rate at 20 uM incubated for 24 hrs by CCK-8 assay relative to control (reference value: 100 %); format: toxicity, cell-based; conditions: read-out: Survival
Attribute measured: viability at 24 h, 20 µM (%)

Cpd smiles: COc1cc(C[C@H](C(=O)NCc2ccccc2)[C@@H](Cc2cc(OC)c(O)c(OC)c2)C(=O)NCc2ccccc2)cc(OC)c1O
Attribute measured: viability at 24 h, 20 µM
Output unit: %
Measured number: 103
//
Cpd smiles: COc1cccc(CNC(=O)[C@@H](Cc2cc(OC)c(O)c(OC)c2)[C@@H](Cc2cc(OC)c(O)c(OC)c2)C(=O)NCc2cccc(OC)c2)c1
Attribute measured: viability at 24 h, 20 µM
Output unit: %
Measured number: 100
//
Cpd smiles: COc1cc(C[C@H](C(=O)NCc2cccnc2OC)[C@@H](Cc2cc(OC)c(O)c(OC)c2)C(=O)NCc2cccnc2OC)cc(OC)c1O
Attribute measured: viability at 24 h, 20 µM
Output unit: %
Measured number: 69.9
//
Cpd smiles: COc1cc(C[C@H](C(=O)NCc2ccc(F)cc2)[C@@H](Cc2cc(OC)c(O)c(OC)c2)C(=O)NCc2ccc(F)cc2)cc(OC)c1O
Attribute measured: viability at 24 h, 20 µM
Output unit: %
Measured number: 103
//
Cpd smiles: COc1cc(C[C@H](C(=O)NCc2ccc(C(F)(F)F)cc2)[C@@H](Cc2cc(OC)c(O)c(OC)c2)C(=O)NCc2ccc(C(F)(F)F)cc2)cc(OC)c1O
Attribute measured: viability at 24 h, 20 µM
Output unit: %
Measured number: 99.1
//
Cpd smiles: COc1ccc(CNC(=O)[C@@H](Cc2cc(OC)c(O)c(OC)c2)[C@@H](Cc2cc(OC)c(O)c(OC)c2)C(=O)NCc2ccc(OC)cc2)cc1
Attribute measured: viability at 24 h, 20 µM
Output unit: %
Measured number: 99.9
//
Cpd smiles: COc1cc(C[C@H](C(=O)NCc2cccnc2C(F)(F)F)[C@@H](Cc2cc(OC)c(O)c(OC)c2)C(=O)NCc2cccnc2C(F)(F)F)cc(OC)c1O
Attribute measured: viability at 24 h, 20 µM
Output unit: %
Measured number: 90.7
//
Cpd smiles: COc1cc(C[C@H](C(=O)NCc2ccncc2F)[C@@H](Cc2cc(OC)c(O)c(OC)c2)C(=O)NCc2ccncc2F)cc(OC)c1O
Attribute measured: viability at 24 h, 20 µM
Output unit: %
Measured number: 95.9
//
Cpd smiles: COc1cc(C[C@H](C(=O)NCc2ccc(S(C)(=O)=O)cc2)[C@@H](Cc2cc(OC)c(O)c(OC)c2)C(=O)NCc2ccc(S(C)(=O)=O)cc2)cc(OC)c1O
Attribute measured: viability at 24 h, 20 µM
Output unit: %
Measured number: 70
//
Cpd smiles: COc1cc(C[C@H](C(=O)NCc2ncccc2C)[C@@H](Cc2cc(OC)c(O)c(OC)c2)C(=O)NCc2ncccc2C)cc(OC)c1O
Attribute measured: viability at 24 h, 20 µM
Output unit: %
Measured number: 85.1
//
Cpd smiles: COc1cc(CNC(=O)[C@@H](Cc2cc(OC)c(O)c(OC)c2)[C@@H](Cc2cc(OC)c(O)c(OC)c2)C(=O)NCc2ccc(O)c(OC)c2)ccc1O
Attribute measured: viability at 24 h, 20 µM
Output unit: %
Measured number: 96.6
//
Cpd smiles: COc1cc(C[C@H](C(=O)NCc2ccc(C)cc2)[C@@H](Cc2cc(OC)c(O)c(OC)c2)C(=O)NCc2ccc(C)cc2)cc(OC)c1O
Attribute measured: viability at 24 h, 20 µM
Output unit: %
Measured number: 95.6
//
Cpd smiles: COc1cc(CNC(=O)[C@@H](Cc2cc(OC)c(O)c(OC)c2)[C@@H](Cc2cc(OC)c(O)c(OC)c2)C(=O)NCc2cc(OC)cc(OC)c2)cc(OC)c1
Attribute measured: viability at 24 h, 20 µM
Output unit: %
Measured number: 99.1
//
Cpd smiles: COc1cc(C[C@H](C(=O)NCc2ccc(F)cn2)[C@@H](Cc2cc(OC)c(O)c(OC)c2)C(=O)NCc2ccc(F)cn2)cc(OC)c1O
Attribute measured: viability at 24 h, 20 µM
Output unit: %
Measured number: 81.3
//
Cpd smiles: COc1cc(C[C@H](C(=O)NCc2cc(F)cc(F)c2)[C@@H](Cc2cc(OC)c(O)c(OC)c2)C(=O)NCc2cc(F)cc(F)c2)cc(OC)c1O
Attribute measured: viability at 24 h, 20 µM
Output unit: %
Measured number: 97.8
